# Tested on: HT-1080
# Protocol Description: HIM-PROTAC activity at GPX4/HSP90/E3 ligase in human HT-1080 cells assessed as reduction in GPX4 level at 1 uM incubated for 24 hrs by Western blotting analysis
# Format: cell-based
Calls of active or inactive are those of the source. The rule behind the calls is not given here.
Observation Type: Activity

COc1c(C)cnc(Cn2cnc3c(Cl)nc(N)nc32)c1C [BIIB021]; inactive
COc1ccc(N(C(=O)CCl)C(C(=O)NCCc2ccccc2)c2cccs2)cc1Cl (stereo not given); inactive
COc1c(C)cnc(Cn2cnc3c(NCCC4CCN(C(=O)Cn5cc(COc6ccc(N(C(=O)CCl)C(C(=O)NCCc7ccccc7)c7cccs7)cc6Cl)nn5)CC4)nc(N)nc32)c1C (stereo not given); 100%
COc1c(C)cnc(Cn2cnc3c(NCCOCCOCCOCCn4cc(COc5ccc(N(C(=O)CCl)C(C(=O)NCCc6ccccc6)c6cccs6)cc5Cl)nn4)nc(N)nc32)c1C (stereo not given); 100%

---

# Protocol Description: AUC(0 to t) in ICR mouse at 25 mg/kg, ip measured upto 24 hrs by LC-MS/MS analysis
# Format: ADME, organism-based
# Assay Setup: in vivo
This listing pairs molecules with measured AUC(0-t) at 24 h.
Please respond with the number in ng·h/mL and leave the unit unwritten.

COc1c(C)cnc(Cn2cnc3c(NCCC4CCN(C(=O)Cn5cc(COc6ccc(N(C(=O)CCl)C(C(=O)NCCc7ccccc7)c7cccs7)cc6Cl)nn5)CC4)nc(N)nc32)c1C (configuration not stated); 334

Turning to the following molecule.
Ask: Looking for the measured AUC(0-t) at 24 h of COc1c(C)cnc(Cn2cnc3c(NCCOCCOCCOCCn4cc(COc5ccc(N(C(=O)CCl)C(C(=O)NCCc6ccccc6)c6cccs6)cc5Cl)nn4)nc(N)nc32)c1C (configuration not stated) , can you help?
Result: 726

---

# Target Under Test: Heat shock protein HSP 90-alpha (Homo sapiens)
# Protocol Description: Binding affinity to recombinant human HSP90alpha by SPR assay
Observation Type: Kd (nM)
Please respond with the number in nM and leave the unit unwritten.

COc1c(C)cnc(Cn2cnc3c(NCCC4CCN(C(=O)Cn5cc(COc6ccc(N(C(=O)CCl)C(C(=O)NCCc7ccccc7)c7cccs7)cc6Cl)nn5)CC4)nc(N)nc32)c1C (configuration not stated); 190

Ask: Looking for the measured Kd of COc1c(C)cnc(Cn2cnc3c(NCCOCCOCCOCCn4cc(COc5ccc(N(C(=O)CCl)C(C(=O)NCCc6ccccc6)c6cccs6)cc5Cl)nn4)nc(N)nc32)c1C (configuration not stated) , can you help?
Result: 2770

---

# Protocol Description: AUCinfinity in ICR mouse at 25 mg/kg, ip measured upto 24 hrs by LC-MS/MS analysis
# Assay type: ADME, organism-based
# Assay Setup: in vivo
This listing pairs molecules with measured AUC(0-inf).
Please respond with the number in ng·h/mL and leave the unit unwritten.

COc1c(C)cnc(Cn2cnc3c(NCCOCCOCCOCCn4cc(COc5ccc(N(C(=O)CCl)C(C(=O)NCCc6ccccc6)c6cccs6)cc5Cl)nn4)nc(N)nc32)c1C (configuration not stated); 1030

Turning to the following molecule.
Ask: Looking for the measured AUC(0-inf) of COc1c(C)cnc(Cn2cnc3c(NCCC4CCN(C(=O)Cn5cc(COc6ccc(N(C(=O)CCl)C(C(=O)NCCc7ccccc7)c7cccs7)cc6Cl)nn5)CC4)nc(N)nc32)c1C (configuration not stated) , can you help?
Result: 346
